Every entry's value here was drawn from ChEMBL document CHEMBL2331353.

tested on: MCF7; test: Antitumor activity against human MCF7 cells assessed as inhibition of cell proliferation after 48 hrs by MTT assay; assay type: functional, cell-based; settings: MCF7, 48 h
Measure Name: pIC50
// returns pIC50 (minus log10 of molar concentration), number only

Ask: Tell us which pIC50 value is on record for COc1ccc(/C=C/c2cc(OC)cc(OC)c2/C=C/C(=O)NC(C)C)cc1
Result: 5.59

Ask: Give the value of pIC50 reported for the following: COc1ccc(/C=C/c2cc(OC)cc(OC)c2/C=C/C(=O)NC2CCCCC2)cc1
Result: 5.58

Ask: Tell us which pIC50 value is on record for CCCCNC(=O)/C=C/c1c(/C=C/c2ccc(OC)cc2)cc(OC)cc1OC
Result: 5.88

Ask: Identify measured pIC50 associated with CCC(C)NC(=O)/C=C/c1c(/C=C/c2ccc(OC)cc2)cc(OC)cc1OC (stereo not given)
Result: 5.46

New cases:
Ask: Give recorded pIC50. COc1ccc(/C=C/c2cc(OC)cc(OC)c2/C=C/C(=O)N2CCN(C)CC2)cc1
Result: 5.64

Ask: Tell me pIC50 reported for COc1ccc(/C=C/c2cc(OC)cc(OC)c2/C=C/C(=O)NCCCl)cc1
Result: 5.64

Ask: For the molecule CCCN(CCC)C(=O)/C=C/c1c(/C=C/c2ccc(OC)cc2)cc(OC)cc1OC , report pIC50.
Result: 5.70

====

system: MCF7; test: Antitumor activity against human MCF7 cells assessed as inhibition of cell proliferation after 48 hrs by MTT assay; format: functional, cell-based; details: MCF7, 48 h
IC50 values for the compounds below.
Your answer should be a number followed by the unit of measure.

Ask: # return IC50 of COc1ccc(/C=C/c2cc(OC)cc(OC)c2/C=C/C(=O)N(CC(C)C)CC(C)C)cc1 (system: MCF7)
Result: 2.39 µM

Ask: Consider the compound COc1ccc(/C=C/c2cc(OC)cc(OC)c2/C=C/C(=O)N2CC(C)CC(C)C2)cc1 (centres undefined) tested on MCF7; state its IC50.
Result: 1.57 µM

Ask: Fill in: IC50 on MCF7, entry COc1ccc(/C=C/c2cc(OC)cc(OC)c2/C=C/C(=O)N2CCSCC2)cc1
Result: 2.76 µM

Ask: Find IC50 for CCN(CC)C(=O)/C=C/c1c(/C=C/c2ccc(OC)cc2)cc(OC)cc1OC on MCF7 and write it down.
Result: 6.55 µM

Ask: Write down measured IC50 (MCF7) for this compound. COc1ccc(/C=C/c2cc(OC)cc(OC)c2/C=C/C(=O)NCCCN2CCOCC2)cc1
Result: 4.15 µM

Now consider the entry below.
Ask: Look up and report measured IC50 (MCF7) for the following compound: COc1ccc(/C=C/c2cc(OC)cc(OC)c2/C=C/C(=O)N2CCCCC2)cc1
Result: 6.05 µM

====

Reported pIC50 values for a set of molecules
Target: Prostaglandin G/H synthase 2 (Mus musculus, UniProt Q05769)
Sequence (Q05769 whole entry): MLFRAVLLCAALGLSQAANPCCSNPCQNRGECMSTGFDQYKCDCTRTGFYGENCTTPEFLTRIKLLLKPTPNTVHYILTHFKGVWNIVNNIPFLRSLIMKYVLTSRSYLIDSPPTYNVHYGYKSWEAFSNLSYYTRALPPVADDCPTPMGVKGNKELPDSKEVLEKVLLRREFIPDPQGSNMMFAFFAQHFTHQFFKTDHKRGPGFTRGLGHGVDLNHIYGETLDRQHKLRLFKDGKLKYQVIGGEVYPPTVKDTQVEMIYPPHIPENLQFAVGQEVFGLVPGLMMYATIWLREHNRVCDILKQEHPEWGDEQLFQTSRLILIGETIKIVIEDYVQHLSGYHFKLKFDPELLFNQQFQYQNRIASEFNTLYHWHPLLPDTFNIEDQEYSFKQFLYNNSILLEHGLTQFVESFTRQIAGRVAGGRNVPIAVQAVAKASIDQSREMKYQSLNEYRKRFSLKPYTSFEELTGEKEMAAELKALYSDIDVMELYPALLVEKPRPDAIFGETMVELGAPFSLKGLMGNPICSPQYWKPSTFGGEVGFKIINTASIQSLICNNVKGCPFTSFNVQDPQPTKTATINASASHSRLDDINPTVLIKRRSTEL
Assay: Inhibition of COX-2 in mouse RAW264.7 cells assessed as decrease in LPS-induced PGE2 production
pIC50 (log units): -log10 of the concentration in mol/L.

Ask: Note down pIC50 recorded for COc1ccc(/C=C/c2cc(OC)cc(OC)c2/C=C/C(=O)N2CCSCC2)cc1
Result: 5.50

Ask: Quickly give me recorded pIC50 for CCCCCCNC(=O)/C=C/c1c(/C=C/c2ccc(OC)cc2)cc(OC)cc1OC
Result: 5.30

Ask: Please give the documented pIC50 of COc1ccc(/C=C/c2cc(OC)cc(OC)c2/C=C/C(=O)N2CCCCC2)cc1
Result: 4.82

Ask: Please give measured pIC50 of the following entry: CCC1CCCCN1C(=O)/C=C/c1c(/C=C/c2ccc(OC)cc2)cc(OC)cc1OC (stereo not drawn)
Result: 5.20

Ask: Read the entry COc1ccc(/C=C/c2cc(OC)cc(OC)c2/C=C/C(=O)NC(C)(C)C)cc1 and write its reported pIC50.
Result: 5.28

Ask: In one line, give reported pIC50 of the entry COc1ccc(/C=C/c2cc(OC)cc(OC)c2/C=C/C(=O)O)cc1 .
Result: 5.52

Ask: Given the molecule C=CCN(CC=C)C(=O)/C=C/c1c(/C=C/c2ccc(OC)cc2)cc(OC)cc1OC , write its reported pIC50.
Result: 5.48

Now take the following molecule into account.
Ask: Provide only the value of recorded pIC50 for CCC(C)NC(=O)/C=C/c1c(/C=C/c2ccc(OC)cc2)cc(OC)cc1OC (stereo not drawn)
Result: 5.68
